# TARGET ENTITY: SARS-CoV-2 S-RBD with Avi-tag and deca-His tag (residues 330-531) (SARS-CoV-2, UniProt P0DTC2 330-531)
# PROTOCOL DETAILS: BLI
Answer each item with its documented koff.
Give bare numbers, in s⁻¹.

The cases that follow already have their koff on record.
BINDER: sybody LR1 (VHH) VHH: QVQLVESGGGSVQAGGSLRLSCAASGSISSITYLGWFRQAPGKEREGVAALITDSGRTYYADSVKGRFTVSLDNAKNTVYLQMNSLKPEDTALYYCAAAEWGYEWPLYYASSWYWGQGTQVTVS
koff (s⁻¹): 0.0096
--
BINDER: sybody LR5 (VHH) VHH: QVQLVESGGGSVQAGGSLRLSCAASGSISSITYLGWFRQAPGKEREGVAALITSNGRTYYADSVKGRFTVSLDNAKNTVYLQMNSLKPEDTALYYCAAATWGYHWPLGAWDYWYWGQGTQVTVS
koff (s⁻¹): 0.0032
--
BINDER: sybody MR4 (VHH) VHH: QVQLVESGGGLVQAGGSLRLSCAASGFPMYAWEMAWYRQAPGKEREWVAAIRSMGVHTHYSDSVKGRFTISRDNAKNTVYLQMNSLKPEDTAVYYCNVKDFGGHQAYYDYWGQGTQVTVS
koff (s⁻¹): 0.0064

Provide the reported koff of each entry below, same order.
1. sybody MR17 (VHH, biotin by an amine-reactive crosslinker (only where immobilised on the SA sensor)) VHH: QVQLVESGGGLVQAGGSLRLSCAASGFPVEVWRMEWYRQAPGKEREGVAAIESYGHGTRYADSVKGRFTISRDNAKNTVYLQMNSLKPEDTAVYYCNVKDDGQLAYHYDYWGQGTQVTVS
2. sybody SR4 (VHH, biotin by an amine-reactive crosslinker (only where immobilised on the SA sensor)) VHH: QVQLVESGGGLVQAGGSLRLSCAASGFPVYSWNMWWYRQAPGKEREWVAAIESHGDSTRYADSVKGRFTISRDNAKNTVYLQMNSLKPEDTAVYYCYVWVGHTYYGQGTQVTVS

0.0097
0.0014
